biological target: Prostaglandin G/H synthase 2 (Homo sapiens, UniProt P35354)
Sequence (P35354 whole entry): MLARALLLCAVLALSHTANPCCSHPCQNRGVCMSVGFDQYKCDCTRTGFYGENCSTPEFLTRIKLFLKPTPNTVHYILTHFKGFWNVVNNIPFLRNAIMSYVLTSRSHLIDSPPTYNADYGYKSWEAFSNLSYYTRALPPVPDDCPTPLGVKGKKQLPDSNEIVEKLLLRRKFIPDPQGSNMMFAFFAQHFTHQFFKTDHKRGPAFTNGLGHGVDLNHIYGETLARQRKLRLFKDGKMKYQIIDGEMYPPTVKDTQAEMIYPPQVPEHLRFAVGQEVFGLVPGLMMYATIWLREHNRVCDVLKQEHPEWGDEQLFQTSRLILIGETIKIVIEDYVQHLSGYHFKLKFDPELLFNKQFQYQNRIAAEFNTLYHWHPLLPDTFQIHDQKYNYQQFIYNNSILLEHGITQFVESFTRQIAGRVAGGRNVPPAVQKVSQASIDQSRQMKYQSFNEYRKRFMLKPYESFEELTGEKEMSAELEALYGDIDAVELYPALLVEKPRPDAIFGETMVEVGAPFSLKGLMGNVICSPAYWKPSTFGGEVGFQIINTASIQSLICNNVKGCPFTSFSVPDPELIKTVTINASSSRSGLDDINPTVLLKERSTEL
observation_type: IC50 (nM)

Cc1cccc(C)c1Nc1ccccc1CC(=O)O = 47
Cc1ccc(Nc2c(Cl)cccc2Cl)c(CC(=O)O)c1 = 47
O=C(O)Cc1ccccc1Nc1c(Cl)cccc1C(F)(F)F = 166

1: Cc1cccc(Cl)c1Nc1ccccc1CC(=O)O
2: Cc1ccc(Nc2c(C)cccc2Cl)c(CC(=O)O)c1
q: Of 1 and 2 , whose reported IC50 is numerically smaller? # respond with the chosen item's label
a: 1
(1: 20 nM, 2: 60 nM)

###

Target: Prostaglandin G/H synthase 2 (Mus musculus)
Sequence (Q05769 whole entry): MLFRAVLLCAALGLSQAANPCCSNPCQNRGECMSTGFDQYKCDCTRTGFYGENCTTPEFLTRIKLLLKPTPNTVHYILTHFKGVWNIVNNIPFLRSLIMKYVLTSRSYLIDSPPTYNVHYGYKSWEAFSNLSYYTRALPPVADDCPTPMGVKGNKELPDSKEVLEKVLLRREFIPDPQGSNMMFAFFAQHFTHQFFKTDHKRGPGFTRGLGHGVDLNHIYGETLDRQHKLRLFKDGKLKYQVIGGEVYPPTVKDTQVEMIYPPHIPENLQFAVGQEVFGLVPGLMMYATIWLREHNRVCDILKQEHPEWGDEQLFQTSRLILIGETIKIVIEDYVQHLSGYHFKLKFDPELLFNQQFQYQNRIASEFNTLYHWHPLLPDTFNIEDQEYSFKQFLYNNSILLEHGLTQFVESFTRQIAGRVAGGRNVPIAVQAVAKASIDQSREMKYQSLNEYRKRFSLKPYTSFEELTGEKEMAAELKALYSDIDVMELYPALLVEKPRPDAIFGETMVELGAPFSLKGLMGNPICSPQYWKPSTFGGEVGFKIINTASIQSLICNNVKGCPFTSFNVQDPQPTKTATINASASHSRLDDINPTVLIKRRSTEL
observation_type: IC50 (µM)

Check out these entries, answers already filled in.
Cc1cccc(C)c1Nc1ccccc1CC(=O)O = 0.048
CCc1cccc(C)c1Nc1ccccc1CC(=O)O = 0.174
O=C(O)Cc1ccccc1Nc1c(F)cccc1C(F)(F)F = 1.2

A: Cc1ccc(Nc2c(Cl)cccc2Cl)c(CC(=O)O)c1
B: Cc1cccc(Cl)c1Nc1ccccc1CC(=O)O
C: Cc1ccc(Nc2c(C)cccc2Cl)c(CC(=O)O)c1
q: Sort the 3 compounds by IC50; largest first, smallest last. Use the labels to give the ranking in the order requested.
a: C, A, B

P: Cc1ccc(Nc2c(Cl)cc(Cl)cc2Cl)c(CC(=O)O)c1
Q: O=C(O)Cc1ccccc1Nc1c(Cl)cccc1C(F)(F)F
q: Of P and Q , whose reported IC50 is numerically smaller? # respond with the chosen item's label
a: P
